Subject of test: T1, GLP-1R (INS1e assay) (UniProt P32301 22-463, limits assumed)
T1 sequence (looked up): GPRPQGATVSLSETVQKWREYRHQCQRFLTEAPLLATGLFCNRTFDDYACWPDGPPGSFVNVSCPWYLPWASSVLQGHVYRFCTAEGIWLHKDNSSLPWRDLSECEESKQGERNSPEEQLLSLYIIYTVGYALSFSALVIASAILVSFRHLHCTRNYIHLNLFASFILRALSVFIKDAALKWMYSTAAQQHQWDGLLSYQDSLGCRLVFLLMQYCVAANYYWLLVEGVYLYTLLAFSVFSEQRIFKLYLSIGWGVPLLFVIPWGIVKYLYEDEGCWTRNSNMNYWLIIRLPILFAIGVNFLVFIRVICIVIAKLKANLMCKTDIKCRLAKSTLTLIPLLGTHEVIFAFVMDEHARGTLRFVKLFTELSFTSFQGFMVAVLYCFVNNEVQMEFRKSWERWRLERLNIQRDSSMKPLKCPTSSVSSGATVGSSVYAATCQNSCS
Method description: cell-based or functional assay
Starred links: 1 amine or outer side, 2 acyl side, 3 side chain; linkers in the order of their positions; H or OH if unused. Non-standard residues stand in square brackets, D forms with d. Groups on a side chain read outwards from the residue. Primed or numbered codes have the meaning given here. No end group written: not given here. *: point of attachment. γGlu = O=C(O)[C@H](CCC(=O)[*:2])N[*:1]; Stearoyl = CCCCCCCCCCCCCCCCCC(=O)*; αMeF = C[C@](N)(Cc1ccccc1)C(=O)O; αMeK = C[C@](N)(CCCCN)C(=O)O; Lauroyl = CCCCCCCCCCCC(=O)*; αMeS = C[C@](N)(CO)C(=O)O; PEG2′ = not defined here; Aib = CC(C)(N)C(=O)O
Endpoint name: INS1e assay EC50 GLP-1 R n1 (nM)

Some binders with known INS1e assay EC50 GLP-1 R n1 results, for comparison:
H[Aib]EGS[αMeF]TSDV[αMeS]SYLEGEAAK([PEG2′-PEG2′-PEG2′-Stearoyl])E[αMeF]IA[αMeF]VV[αMeK]GG-NH2 [SEQ ID NO 53]: 0.00625
H[Aib]EGS[αMeF]TSDV[αMeS]SYLEGEAAK([PEG2′-PEG2′-γGlu-Stearoyl])E[αMeF]IA[αMeF]VV[αMeK]GG-NH2 [SEQ ID NO 47]: 7.13
H[Aib]EGS[αMeF]TSDV[αMeS]S[αMeF]LEGEAA[αMeK]E[αMeF]IAK([PEG2′-PEG2′-γGlu-Stearoyl])VV[αMeK]GG-NH2 [SEQ ID NO 104]: 0.391
H[Aib]EGS[αMeF]TSDVSS[αMeF]LEGEAAK([PEG2′-PEG2′-PEG2′-Stearoyl])E[αMeF]IA[αMeF]VV[αMeK]GG-NH2 [SEQ ID NO 52]: 0.0214
H[Aib]EGS[αMeF]TSDV[αMeS]S[αMeF]LEGEAA[αMeK]E[αMeF]IA[αMeF]VVK([PEG2′-PEG2′-PEG2′-Lauroyl])GG-NH2 [SEQ ID NO 172]: 0.0396
H[Aib]EGS[αMeF]TSDVSK([PEG2′-PEG2′-PEG2′-Stearoyl])YLEGEAA[Aib]E[αMeF]IA[αMeF]VVEGG-NH2 [SEQ ID NO 63]: 0.0231

I = H[Aib]EGS[αMeF]TSDVSK([PEG2′-PEG2′-PEG2′-Stearoyl])YLEGEAAKE[αMeF]IA[αMeF]VVEGG-NH2 [SEQ ID NO 61]
II = H[Aib]EGSFTSDV[αMeS]S[αMeF]LEGEAAK([PEG2′-PEG2′-PEG2′-Stearoyl])E[αMeF]IA[αMeF]VV[αMeK]GG-NH2 [SEQ ID NO 51]
Prompt line: Lower INS1e assay EC50 GLP-1 R n1: I or II ? I would appreciate it if you answered with the label of your choice.
Response line: I
